Measured values drawn from PubChem BioAssay AID1963864 for this set.

Test system: KRAS PDC multicell spheroid viability
Protocol Text: Anticancer human tumor 521955-158-R6-J3-PDC patient-derived pancreatic carcinoma cell line growth inhibition [KRAS2]
Test Settings: compound 1 µM; stronger effect = lower value
Measured Endpoint: viability, T/C

Query: Please report the measured viability, T/C for "CCN1CCN(Cc2ccc(Nc3ncc(F)c(-c4cc(F)c5nc(C)n(C(C)C)c5c4)n3)nc2)CC1" tested on KRAS PDC multicell spheroid viability.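 Note: drug exposure lasted seven days; 100% = DMSO vehicle wells and lower means fewer viable cells.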
Result: 95.5% [middle of 5 runs]

Query: Please report the measured viability, T/C for "COc1cc(OC)cc(N(CCNC(C)C)c2ccc3ncc(-c4cnn(C)c4)nc3c2)c1" tested on KRAS PDC multicell spheroid viability.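 Note: drug exposure lasted seven days; 100% = DMSO vehicle wells and lower means fewer viable cells.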
Result: 94% [middle of 4 runs]

Query: Please report the measured viability, T/C for CC(C)NCC(C(=O)N1CCN(c2ncnc3c2C(C)CC3O)CC1)c1ccc(Cl)cc1 (centres undefined) tested on KRAS PDC multicell spheroid viability.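 Note: drug exposure lasted seven days; 100% = DMSO vehicle wells and lower means fewer viable cells.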
Result: 77% [middle of 5 runs]

Query: Please report the measured viability, T/C for "CC1(C)CCC(CN2CCN(c3ccc(C(=O)NS(=O)(=O)c4ccc(NCC5CCOCC5)c([N+](=O)[O-])c4)c(Oc4cnc5[nH]ccc5c4)c3)CC2)=C(c2ccc(Cl)cc2)C1" tested on KRAS PDC multicell spheroid viability.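 Note: drug exposure lasted seven days; 100% = DMSO vehicle wells and lower means fewer viable cells.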
Result: 97.9% [middle of 5 runs]
